molecular target: T1, human GPC3-His protein (human, UniProt P51654 25-559, limits assumed); test: SPR, antibody captured on Protein A chip, human GPC3-His injected, 1:1 Langmuir model;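 also: flow cell at 25 °C, antigen injected for 240 s at five twofold dilutions starting at 200 nM, dissociation followed up to 600 s, double-referenced sensorgrams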
T1 construct: also called human GPC3 protein; not shown: His tag
readout type: Kd (nM)

binder	units label	numeric readout
hAb006LH2L1 (antibody, human IgG1, V domains shown, Humanized F3.38.7) VH: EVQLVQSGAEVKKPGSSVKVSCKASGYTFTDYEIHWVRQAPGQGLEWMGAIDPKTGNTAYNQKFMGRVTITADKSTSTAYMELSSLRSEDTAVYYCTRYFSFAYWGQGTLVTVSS VL: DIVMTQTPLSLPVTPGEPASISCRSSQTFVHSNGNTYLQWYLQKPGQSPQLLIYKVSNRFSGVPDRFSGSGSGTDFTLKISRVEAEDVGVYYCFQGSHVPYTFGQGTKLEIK	nM	4.3
hAb007LH1L1b (antibody, human IgG1, V domains shown, Humanized F3.81.19) VH: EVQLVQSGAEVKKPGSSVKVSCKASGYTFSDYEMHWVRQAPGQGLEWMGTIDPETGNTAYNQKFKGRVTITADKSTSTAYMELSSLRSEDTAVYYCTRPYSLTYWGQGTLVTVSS VL: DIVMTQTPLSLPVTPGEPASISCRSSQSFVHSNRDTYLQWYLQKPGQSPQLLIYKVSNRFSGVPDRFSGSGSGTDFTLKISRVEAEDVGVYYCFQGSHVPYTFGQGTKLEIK	nM	2.21
hAb006LH2L1b (antibody, human IgG1, V domains shown, Humanized F3.38.7) VH: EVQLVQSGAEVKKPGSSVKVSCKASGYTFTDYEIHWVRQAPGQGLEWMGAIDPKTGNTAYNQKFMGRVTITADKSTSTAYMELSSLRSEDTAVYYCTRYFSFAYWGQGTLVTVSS VL: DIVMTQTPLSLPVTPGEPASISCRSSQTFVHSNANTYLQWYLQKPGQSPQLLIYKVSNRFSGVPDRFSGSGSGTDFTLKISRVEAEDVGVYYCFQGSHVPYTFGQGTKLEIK	nM	9.28
hAb001H1aL1b (antibody, human IgG1, V domains shown, Humanized F2.169.2) VH: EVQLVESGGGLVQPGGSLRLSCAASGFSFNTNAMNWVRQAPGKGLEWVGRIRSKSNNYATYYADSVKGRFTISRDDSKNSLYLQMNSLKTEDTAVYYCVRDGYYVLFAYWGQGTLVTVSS VL: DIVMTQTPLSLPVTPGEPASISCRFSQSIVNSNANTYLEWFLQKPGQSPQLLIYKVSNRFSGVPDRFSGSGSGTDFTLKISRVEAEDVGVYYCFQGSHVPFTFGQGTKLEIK	nM	109
